Origin of values: patent US20240109974A1

# STUDY TARGET: T1, human TNFR2 (Novoprotein, Cat #C830) (human, UniProt P20333 23-257, limits assumed)
# T1 construct: construct not described; also called human TNFR2 protein
# T1 sequence (looked up): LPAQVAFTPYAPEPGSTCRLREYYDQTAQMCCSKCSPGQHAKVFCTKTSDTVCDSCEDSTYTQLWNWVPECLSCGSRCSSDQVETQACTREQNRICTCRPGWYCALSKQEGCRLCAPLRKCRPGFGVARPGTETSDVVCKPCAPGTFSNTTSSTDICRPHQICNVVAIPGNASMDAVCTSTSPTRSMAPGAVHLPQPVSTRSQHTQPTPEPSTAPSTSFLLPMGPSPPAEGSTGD
# TEST: competition ELISA, competitor human TNFα-Biotin; AUC against 219-WT
# Protocol: 1 μg/ml human TNFR2 (Novoprotein, Cat #C830) was pre-coated with 100 μl/well of the antibody in an ELISA plate. […] A stop solution was added to stop the reaction, and then a microplate reader (MD 13) was used to read the absorbance value. […]
Hi there, I'd appreciate the recorded % Relative activity (WT antibody/test antibody) for every entry that follows.
One number for each entry, in %.

>  <BINDER>
219-Hu5 (antibody, V domains shown, also called VH7 + VL5) VH: QVQLVQSGAEVKKPGSSVKVSCKASGYSFTNYWMNWVRQAPGQGLEWMGMIHPSDTETRLNQNFKDRVTITVDKSTSTAYMELSSLRSEDTAVYYCARGEGLGAARSVSMDYWGQGTLVTVSS VL: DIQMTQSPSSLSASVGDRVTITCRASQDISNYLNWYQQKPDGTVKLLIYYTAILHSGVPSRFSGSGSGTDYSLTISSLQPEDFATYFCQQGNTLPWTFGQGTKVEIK

>  <OBSERVED MEASUREMENT>
106

$$$$

# next binder below
For this binder ( 219-Hu1 (antibody, V domains shown, also called VH3 + VL5) VH: QVQLVQSGAEVKKPGASVKVSCKASGYSFTNYWMNWVRQAPGQRLEWMGMIHPSDTETRLNQNFKDRVTITRDTSASTAYMELSSLRSEDTAVYYCARGEGLGAARSVSMDYWGQGTLVTVSS VL: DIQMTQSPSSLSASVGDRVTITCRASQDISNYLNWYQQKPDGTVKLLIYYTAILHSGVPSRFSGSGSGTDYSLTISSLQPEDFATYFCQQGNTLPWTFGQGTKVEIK ), measured % Relative activity (WT antibody/test antibody) is 105
